Data provenance: the kinase profiling compilation of Christmann-Franck et al. (2016)

# Target: NUAK1 (human) (UniProt O60285)
# Sequence (O60285 whole entry, looked up): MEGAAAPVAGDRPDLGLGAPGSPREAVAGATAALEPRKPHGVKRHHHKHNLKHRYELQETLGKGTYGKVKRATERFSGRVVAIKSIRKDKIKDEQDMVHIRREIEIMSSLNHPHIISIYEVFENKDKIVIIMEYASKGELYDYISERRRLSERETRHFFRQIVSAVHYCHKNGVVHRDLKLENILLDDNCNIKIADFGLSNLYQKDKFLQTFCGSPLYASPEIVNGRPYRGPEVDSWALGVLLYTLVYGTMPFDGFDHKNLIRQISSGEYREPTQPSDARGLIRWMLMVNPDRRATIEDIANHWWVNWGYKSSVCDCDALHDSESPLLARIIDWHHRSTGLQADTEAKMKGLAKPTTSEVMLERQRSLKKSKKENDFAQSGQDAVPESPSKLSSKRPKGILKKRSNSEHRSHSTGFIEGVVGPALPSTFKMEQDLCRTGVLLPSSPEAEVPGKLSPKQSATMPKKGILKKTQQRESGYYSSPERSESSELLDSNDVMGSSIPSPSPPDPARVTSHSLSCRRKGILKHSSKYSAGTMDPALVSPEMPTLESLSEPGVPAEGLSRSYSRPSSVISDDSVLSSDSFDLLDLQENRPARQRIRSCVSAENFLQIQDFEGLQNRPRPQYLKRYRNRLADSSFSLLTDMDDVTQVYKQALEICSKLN
# Experiment: radiometric filter-binding kinase assay
# Experimental parameters: compound 10.0 µM
molecules and their reported residual activity

Consider the following illustrative entries.
CCCC(CCC)C(=O)O : 88%
CC(C)C[C@H](NC(=O)CNC(=O)c1cc(Cl)ccc1Cl)B1OC(=O)CC(CC(=O)O)(C(=O)O)O1 (some centres undefined) : 78%
Cc1ccc(Sc2cnc(Nc3cccc(Br)n3)s2)cc1C(=O)N1CCN(C(=O)CN)CC1 : 7%

Moving on to the next molecule.
Measured residual activity of CCCCCc1ccc(/C=C/[C@H](O)[C@@H](CO)NC)cc1 : 101%
